Attribution: the kinase profiling compilation of Christmann-Franck et al. (2016)

Target or system: PRKCG (human)
Assay: radiometric filter-binding kinase assay, Kinase HotSpot
Applied conditions: compound 0.5 µM; ATP 10 µM
Field: label. Allowed values: satisfied (residual activity < 90%) or not satisfied (residual activity >= 90%).

Illustrative cases are given below, each with its answer.
## Task Consider the compound O=C1NC(=O)c2cc(Nc3ccc(F)cc3)c(Nc3ccc(F)cc3)cc21 . Is its residual activity strictly less than 90%?
## Result not satisfied

## Task Consider the compound O=c1cc(N2CCOCC2)oc2c(-c3ccccc3)cccc12 . Is its residual activity strictly less than 90%?
## Result not satisfied

## Task Consider the compound O=S(=O)(NCCNC/C=C/c1ccc(Br)cc1)c1cccc2cnccc12 . Is its residual activity strictly less than 90%?
## Result satisfied

## Task Consider the compound COc1cc2ncnc(Nc3ccc(O)c(Br)c3)c2cc1OC . Is its residual activity strictly less than 90%?
## Result not satisfied

## Task Consider the compound CCOc1cc2ncnc(Nc3cccc(Br)c3)c2cc1OCC . Is its residual activity strictly less than 90%?
## Result satisfied

Here's the next entry for you.
## Task Consider the compound COc1cccc(-c2cc(=O)c3ccccc3o2)c1N . Is its residual activity strictly less than 90%?
## Result not satisfied

* * *

Target or system: AXL (human) (UniProt P30530)
Sequence (P30530 whole entry, looked up): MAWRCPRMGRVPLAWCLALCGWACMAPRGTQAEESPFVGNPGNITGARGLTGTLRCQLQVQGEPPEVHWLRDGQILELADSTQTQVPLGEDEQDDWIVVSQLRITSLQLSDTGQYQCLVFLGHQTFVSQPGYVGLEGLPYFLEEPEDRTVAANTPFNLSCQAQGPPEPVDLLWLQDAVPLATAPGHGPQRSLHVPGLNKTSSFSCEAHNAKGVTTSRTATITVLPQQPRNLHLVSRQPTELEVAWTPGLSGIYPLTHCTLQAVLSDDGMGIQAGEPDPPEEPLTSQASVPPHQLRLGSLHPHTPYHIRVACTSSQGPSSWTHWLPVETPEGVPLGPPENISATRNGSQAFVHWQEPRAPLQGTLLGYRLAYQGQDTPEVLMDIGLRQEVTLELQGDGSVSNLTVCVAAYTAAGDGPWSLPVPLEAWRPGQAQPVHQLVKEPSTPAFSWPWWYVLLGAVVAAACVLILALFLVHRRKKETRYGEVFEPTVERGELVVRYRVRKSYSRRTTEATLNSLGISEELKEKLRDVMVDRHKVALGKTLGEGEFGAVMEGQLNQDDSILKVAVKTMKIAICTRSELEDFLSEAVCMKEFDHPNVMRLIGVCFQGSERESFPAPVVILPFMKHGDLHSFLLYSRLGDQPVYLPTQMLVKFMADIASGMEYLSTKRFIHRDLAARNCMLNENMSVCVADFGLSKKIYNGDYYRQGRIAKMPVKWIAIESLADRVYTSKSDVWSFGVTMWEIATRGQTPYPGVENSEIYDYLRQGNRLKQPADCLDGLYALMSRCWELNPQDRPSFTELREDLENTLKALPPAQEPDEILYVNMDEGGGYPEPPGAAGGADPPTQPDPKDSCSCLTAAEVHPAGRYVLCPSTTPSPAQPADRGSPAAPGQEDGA
Assay: radiometric filter-binding kinase assay, Kinase HotSpot
Applied conditions: compound 0.5 µM; ATP 10 µM
Metric: residual activity (%)
// return numeric value only (unit: %, not printed)

Assay AXL (human) (UniProt P30530), sample O=C1NC(=O)c2c1c1c3ccccc3[nH]c1c1[nH]c3cc(Br)ccc3c21 , residual activity read: 82.9

Assay AXL (human) (UniProt P30530), sample N#Cc1c(NC(=O)c2cccc3ccccc23)sc2c1CCCC2 , residual activity read: 106

Assay AXL (human) (UniProt P30530), sample N#CCCc1ccc2c(c1)-c1[nH]c3ccc([N+](=O)[O-])cc3c1CC(=O)N2 , residual activity read: 95.5

Assay AXL (human) (UniProt P30530), sample O=C1NC(=O)c2cc(Nc3ccc(F)cc3)c(Nc3ccc(F)cc3)cc21 , residual activity read: 104

Assay AXL (human) (UniProt P30530), sample COc1cc2ncnc(Nc3ccc(O)c(Br)c3)c2cc1OC , residual activity read: 89.4

* * *

Target or system: MAP2K2 (human) (UniProt P36507)
Sequence (P36507 whole entry, looked up): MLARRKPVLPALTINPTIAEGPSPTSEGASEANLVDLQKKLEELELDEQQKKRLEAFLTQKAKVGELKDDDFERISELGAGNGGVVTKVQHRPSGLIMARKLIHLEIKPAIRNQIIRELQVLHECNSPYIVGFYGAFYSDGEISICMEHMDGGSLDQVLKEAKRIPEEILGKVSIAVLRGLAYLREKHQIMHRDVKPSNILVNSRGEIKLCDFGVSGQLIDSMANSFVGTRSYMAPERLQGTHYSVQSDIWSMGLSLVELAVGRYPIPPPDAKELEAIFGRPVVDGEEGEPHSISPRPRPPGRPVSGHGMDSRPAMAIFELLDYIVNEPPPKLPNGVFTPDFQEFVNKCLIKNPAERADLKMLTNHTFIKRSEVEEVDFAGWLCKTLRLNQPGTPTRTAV
Assay: radiometric filter-binding kinase assay, Kinase HotSpot
Applied conditions: compound 0.5 µM; ATP 10 µM
Metric: residual activity (%)
// return numeric value only (unit: %, not printed)

Assay MAP2K2 (human) (UniProt P36507), sample Cc1cc(Nc2nc(-c3ccccc3)nc3ccccc23)n[nH]1 , residual activity read: 102

Assay MAP2K2 (human) (UniProt P36507), sample O=C1NC(=O)c2c1c1c3ccccc3[nH]c1c1[nH]c3cc(Br)ccc3c21 , residual activity read: 105

Assay MAP2K2 (human) (UniProt P36507), sample COc1cc2c(N3CCN(C(=O)Nc4ccc(OC(C)C)cc4)CC3)ncnc2cc1OCCCN1CCCCC1 , residual activity read: 116

Assay MAP2K2 (human) (UniProt P36507), sample COc1cc2ncnc(Nc3ccc(O)c(Br)c3)c2cc1OC , residual activity read: 86.2

Continuing:
Assay MAP2K2 (human) (UniProt P36507), sample Cn1cc(/C=C2\C(=O)Nc3ccc(S(N)(=O)=O)cc32)c2ccccc21 , residual activity read: 94.7

Assay MAP2K2 (human) (UniProt P36507), sample O=C1NC(=O)c2cc(Nc3ccc(F)cc3)c(Nc3ccc(F)cc3)cc21 , residual activity read: 89.5

Assay MAP2K2 (human) (UniProt P36507), sample O=c1c2ccccc2[nH]c(=S)n1CCN1CCC(=C(c2ccc(F)cc2)c2ccc(F)cc2)CC1 , residual activity read: 101

Assay MAP2K2 (human) (UniProt P36507), sample CCc1nc(-c2ccc(OC)cc2)[nH]c1-c1ccncc1 , residual activity read: 105

Assay MAP2K2 (human) (UniProt P36507), sample CCCCc1c(-c2ccc(O)cc2)[nH]c2nccnc12 , residual activity read: 84.7

Assay MAP2K2 (human) (UniProt P36507), sample O=c1[nH]c2ccccc2n1C1CCN(Cc2ccc(-c3nc4cc5[nH]cnc5cc4nc3-c3ccccc3)cc2)CC1 , residual activity read: 86.6

* * *

Target or system: UniProt Q9Y5S2
Sequence (Q9Y5S2 whole entry, looked up): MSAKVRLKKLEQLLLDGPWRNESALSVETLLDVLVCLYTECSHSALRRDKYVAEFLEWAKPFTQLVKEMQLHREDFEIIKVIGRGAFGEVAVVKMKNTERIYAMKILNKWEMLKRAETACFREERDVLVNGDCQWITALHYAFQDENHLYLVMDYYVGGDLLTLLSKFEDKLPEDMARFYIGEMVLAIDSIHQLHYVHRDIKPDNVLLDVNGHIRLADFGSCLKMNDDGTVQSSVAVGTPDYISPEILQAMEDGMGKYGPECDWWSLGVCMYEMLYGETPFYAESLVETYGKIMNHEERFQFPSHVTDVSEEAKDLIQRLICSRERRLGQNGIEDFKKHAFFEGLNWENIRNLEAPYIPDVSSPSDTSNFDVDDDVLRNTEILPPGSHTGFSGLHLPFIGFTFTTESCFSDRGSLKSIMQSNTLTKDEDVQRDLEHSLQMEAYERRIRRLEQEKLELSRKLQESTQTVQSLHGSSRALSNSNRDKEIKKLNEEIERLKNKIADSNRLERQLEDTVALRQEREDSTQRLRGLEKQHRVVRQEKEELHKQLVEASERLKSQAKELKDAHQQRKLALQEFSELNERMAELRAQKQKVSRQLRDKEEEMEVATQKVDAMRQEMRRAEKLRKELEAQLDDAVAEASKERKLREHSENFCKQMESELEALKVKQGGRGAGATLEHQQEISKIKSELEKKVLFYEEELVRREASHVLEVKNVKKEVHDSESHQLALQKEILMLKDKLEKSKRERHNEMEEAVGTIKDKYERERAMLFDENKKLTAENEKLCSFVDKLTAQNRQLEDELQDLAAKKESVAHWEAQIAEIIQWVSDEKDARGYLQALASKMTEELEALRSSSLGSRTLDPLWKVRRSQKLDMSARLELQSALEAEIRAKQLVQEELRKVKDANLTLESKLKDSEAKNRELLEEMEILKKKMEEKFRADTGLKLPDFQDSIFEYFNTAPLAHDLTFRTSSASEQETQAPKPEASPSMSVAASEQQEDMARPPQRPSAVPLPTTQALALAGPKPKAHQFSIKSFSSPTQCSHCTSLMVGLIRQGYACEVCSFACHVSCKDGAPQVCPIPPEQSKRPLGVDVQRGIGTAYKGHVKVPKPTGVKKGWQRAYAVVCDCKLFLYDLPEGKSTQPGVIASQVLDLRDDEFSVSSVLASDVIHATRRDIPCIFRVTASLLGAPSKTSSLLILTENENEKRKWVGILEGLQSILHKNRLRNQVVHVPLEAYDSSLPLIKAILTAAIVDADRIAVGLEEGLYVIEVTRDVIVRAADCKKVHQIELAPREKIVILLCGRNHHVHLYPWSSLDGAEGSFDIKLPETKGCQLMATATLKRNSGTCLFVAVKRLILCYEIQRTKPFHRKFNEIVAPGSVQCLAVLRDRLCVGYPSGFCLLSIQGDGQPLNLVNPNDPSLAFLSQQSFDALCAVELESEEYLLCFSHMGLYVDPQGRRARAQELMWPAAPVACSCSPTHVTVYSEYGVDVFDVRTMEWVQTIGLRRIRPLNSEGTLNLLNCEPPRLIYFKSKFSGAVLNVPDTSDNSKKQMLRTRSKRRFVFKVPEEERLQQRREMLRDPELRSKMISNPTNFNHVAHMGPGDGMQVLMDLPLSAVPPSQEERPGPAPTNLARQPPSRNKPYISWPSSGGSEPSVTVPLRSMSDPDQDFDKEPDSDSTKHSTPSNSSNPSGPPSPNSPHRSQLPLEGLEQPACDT
Assay: radiometric filter-binding kinase assay, Kinase HotSpot
Applied conditions: compound 0.5 µM; ATP 10 µM
Metric: residual activity (%)
// return numeric value only (unit: %, not printed)

Sample answers from the record:
Assay UniProt Q9Y5S2, sample c1ccc(-c2cnc(Nc3ccc(OCCN4CCCC4)cc3)s2)cc1 , residual activity read: 96.7

Assay UniProt Q9Y5S2, sample O=c1[nH]c2ccccc2n1C1CCN(Cc2ccc(-c3nc4cc5[nH]cnc5cc4nc3-c3ccccc3)cc2)CC1 , residual activity read: 101

Assay UniProt Q9Y5S2, sample Cc1cc(Nc2nc(-c3ccccc3)nc3ccccc23)n[nH]1 , residual activity read: 87.1

Assay UniProt Q9Y5S2, sample N#C/C(=C1/Nc2ccccc2S1)c1ccnc(NCCc2cccnc2)n1 , residual activity read: 95.2

Assay UniProt Q9Y5S2, sample Cn1cc(/C=C2\C(=O)Nc3ccc(S(N)(=O)=O)cc32)c2ccccc21 , residual activity read: 114

Continuing:
Assay UniProt Q9Y5S2, sample O=c1cc(N2CCOCC2)oc2c(-c3ccccc3)cccc12 , residual activity read: 88.4

Assay UniProt Q9Y5S2, sample O=C(c1ccccc1)c1ccc(N2CCOCC2)cc1O , residual activity read: 90.9

Assay UniProt Q9Y5S2, sample CCOc1cc2ncnc(Nc3cccc(Br)c3)c2cc1OCC , residual activity read: 107

Assay UniProt Q9Y5S2, sample COc1cc2c(N3CCN(C(=O)Nc4ccc(OC(C)C)cc4)CC3)ncnc2cc1OCCCN1CCCCC1 , residual activity read: 100

Assay UniProt Q9Y5S2, sample COc1cc2c(Nc3ccc(Br)cc3F)ncnc2cc1OCC1CCN(C)CC1 , residual activity read: 98

Assay UniProt Q9Y5S2, sample N#Cc1c(NC(=O)c2cccc3ccccc23)sc2c1CCCC2 , residual activity read: 98

* * *

Form field: residual activity (one value per entry).
Target or system: MLTK (human) (UniProt Q9NYL2)
Sequence (Q9NYL2 whole entry, looked up): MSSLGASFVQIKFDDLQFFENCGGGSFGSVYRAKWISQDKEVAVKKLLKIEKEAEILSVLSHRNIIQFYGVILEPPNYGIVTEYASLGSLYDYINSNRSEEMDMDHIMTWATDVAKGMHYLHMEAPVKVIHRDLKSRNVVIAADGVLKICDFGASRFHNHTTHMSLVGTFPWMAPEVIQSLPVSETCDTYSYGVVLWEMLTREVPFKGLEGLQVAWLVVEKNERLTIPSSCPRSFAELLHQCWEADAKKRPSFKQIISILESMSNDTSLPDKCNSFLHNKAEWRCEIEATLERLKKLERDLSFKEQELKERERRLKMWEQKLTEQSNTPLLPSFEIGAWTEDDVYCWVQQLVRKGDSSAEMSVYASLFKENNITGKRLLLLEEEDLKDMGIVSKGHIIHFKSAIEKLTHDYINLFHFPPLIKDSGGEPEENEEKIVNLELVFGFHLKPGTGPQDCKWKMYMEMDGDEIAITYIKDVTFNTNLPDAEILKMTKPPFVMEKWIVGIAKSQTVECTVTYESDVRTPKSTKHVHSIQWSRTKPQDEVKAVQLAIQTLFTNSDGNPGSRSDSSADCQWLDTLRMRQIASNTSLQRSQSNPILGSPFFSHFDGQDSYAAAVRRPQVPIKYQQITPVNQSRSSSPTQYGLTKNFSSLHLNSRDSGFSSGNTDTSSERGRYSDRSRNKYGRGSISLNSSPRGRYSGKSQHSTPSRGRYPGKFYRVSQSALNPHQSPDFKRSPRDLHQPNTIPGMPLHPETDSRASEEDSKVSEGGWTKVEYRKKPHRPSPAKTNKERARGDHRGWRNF
Assay: radiometric filter-binding kinase assay, Kinase HotSpot
Applied conditions: compound 0.5 µM; ATP 10 µM
// return numeric value only (unit: %, not printed)

Sample answers from the record:
Recorded residual activity (compound N#Cc1c(NC(=O)c2cccc3ccccc23)sc2c1CCCC2 ): 93.2

Recorded residual activity (compound N#C/C(=C1/Nc2ccccc2S1)c1ccnc(NCCc2cccnc2)n1 ): 90.4

Recorded residual activity (compound O=C1NC(=O)c2c1c1c3ccccc3[nH]c1c1[nH]c3cc(Br)ccc3c21 ): 88.8

Recorded residual activity (compound Nc1ncnc2c1cnn2-c1ccccc1 ): 92.5

Continuing:
Recorded residual activity (compound O=c1c2ccccc2[nH]c(=S)n1CCN1CCC(=C(c2ccc(F)cc2)c2ccc(F)cc2)CC1 ): 98.6

Recorded residual activity (compound COc1cccc(-c2cc(=O)c3ccccc3o2)c1N ): 103

Recorded residual activity (compound O=C(O)c1ccc2c3c1cccc3c(=O)n1c3ccccc3nc21 ): 100

* * *

Form field: residual activity (one value per entry).
Target or system: CAMK2G (human)
Assay: radiometric filter-binding kinase assay, Kinase HotSpot
Applied conditions: compound 0.5 µM; ATP 10 µM
// return numeric value only (unit: %, not printed)

Sample answers from the record:
Recorded residual activity (compound COc1cc2ncnc(Nc3ccc(O)c(Br)c3)c2cc1OC ): 95.2

Recorded residual activity (compound COc1cc2c(Nc3ccc(Br)cc3F)ncnc2cc1OCC1CCN(C)CC1 ): 112

Recorded residual activity (compound COc1cc2c(cc1OC)-c1[nH]nc(Nc3cccc(F)c3)c1C2 ): 101

Recorded residual activity (compound Cc1cc(Nc2nc(-c3ccccc3)nc3ccccc23)n[nH]1 ): 95.9

Recorded residual activity (compound O=c1cc(N2CCOCC2)oc2c(-c3ccccc3)cccc12 ): 90.5

Recorded residual activity (compound CCc1nc(-c2ccc(OC)cc2)[nH]c1-c1ccncc1 ): 106

Recorded residual activity (compound O=S(=O)(NCCNC/C=C/c1ccc(Br)cc1)c1cccc2cnccc12 ): 98.7

Recorded residual activity (compound O=C(c1ccccc1)c1ccc(N2CCOCC2)cc1O ): 94

Continuing:
Recorded residual activity (compound O=C1NC(=O)c2c1c1c3ccccc3[nH]c1c1[nH]c3cc(Br)ccc3c21 ): 99.5

Recorded residual activity (compound N/C(=N\N=C/c1ccc(-c2cccc([N+](=O)[O-])c2)o1)N[N+](=O)[O-] ): 82.1

Recorded residual activity (compound N#CCCc1ccc2c(c1)-c1[nH]c3ccc([N+](=O)[O-])cc3c1CC(=O)N2 ): 66

* * *

Target or system: RIPK2 (human)
Assay: radiometric filter-binding kinase assay, Kinase HotSpot
Applied conditions: compound 0.5 µM; ATP 10 µM
Decide using residual activity: a value greater than or equal to 70% is y, a smaller one is n.

Illustrative cases are given below, each with its answer.
## Task Decide: residual activity of N/C(=N\N=C/c1ccc(-c2cccc([N+](=O)[O-])c2)o1)N[N+](=O)[O-] >= 70%?
## Result y

## Task Decide: residual activity of c1ccc(-c2cnc(Nc3ccc(OCCN4CCCC4)cc3)s2)cc1 >= 70%?
## Result n

## Task Decide: residual activity of Cn1cc(/C=C2\C(=O)Nc3ccc(S(N)(=O)=O)cc32)c2ccccc21 >= 70%?
## Result y

Continuing:
## Task Decide: residual activity of O=C(c1ccccc1)c1ccc(N2CCOCC2)cc1O >= 70%?
## Result y

## Task Decide: residual activity of O=c1c(-c2ccc(F)cc2)c(-c2ccncc2)[nH]n1-c1ccc(Cl)cc1 >= 70%?
## Result n
